Items are presented alongside their recorded inhibition at 0.04 µM.
assayed system: CDK4 (Homo sapiens, UniProt P11802+Q16531)
assay notes: CDK4 percentage degradation in Calu-1 cells (Table 6)
Format: cell-based
Design: Cells that express cyclin D1-3 and CDK4/6 proteins were treated with heterobifunctional compounds; endogenous in cells; host or cells: Calu-1
particulars: 40 nM, 16 hours
Sequence (P11802 2-303 limits assumed): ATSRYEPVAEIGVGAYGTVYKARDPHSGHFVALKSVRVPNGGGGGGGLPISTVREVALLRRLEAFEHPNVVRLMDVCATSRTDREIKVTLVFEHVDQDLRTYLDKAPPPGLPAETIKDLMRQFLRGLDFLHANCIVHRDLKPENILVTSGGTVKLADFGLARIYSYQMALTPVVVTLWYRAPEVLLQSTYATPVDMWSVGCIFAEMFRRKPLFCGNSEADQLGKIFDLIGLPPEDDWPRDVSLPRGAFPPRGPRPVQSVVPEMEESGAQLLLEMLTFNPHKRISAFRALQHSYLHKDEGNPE
Sequence (P24385 whole entry partner): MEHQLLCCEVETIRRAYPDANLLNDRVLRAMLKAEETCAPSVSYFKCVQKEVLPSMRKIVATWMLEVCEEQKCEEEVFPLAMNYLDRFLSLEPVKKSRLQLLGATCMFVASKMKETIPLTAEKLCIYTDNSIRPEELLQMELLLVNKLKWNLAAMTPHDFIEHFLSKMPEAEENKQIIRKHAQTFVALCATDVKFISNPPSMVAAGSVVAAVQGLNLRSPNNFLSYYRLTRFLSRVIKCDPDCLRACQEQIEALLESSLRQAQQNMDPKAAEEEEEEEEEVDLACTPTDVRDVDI
Sequence (Q16531 2-1140 limits assumed): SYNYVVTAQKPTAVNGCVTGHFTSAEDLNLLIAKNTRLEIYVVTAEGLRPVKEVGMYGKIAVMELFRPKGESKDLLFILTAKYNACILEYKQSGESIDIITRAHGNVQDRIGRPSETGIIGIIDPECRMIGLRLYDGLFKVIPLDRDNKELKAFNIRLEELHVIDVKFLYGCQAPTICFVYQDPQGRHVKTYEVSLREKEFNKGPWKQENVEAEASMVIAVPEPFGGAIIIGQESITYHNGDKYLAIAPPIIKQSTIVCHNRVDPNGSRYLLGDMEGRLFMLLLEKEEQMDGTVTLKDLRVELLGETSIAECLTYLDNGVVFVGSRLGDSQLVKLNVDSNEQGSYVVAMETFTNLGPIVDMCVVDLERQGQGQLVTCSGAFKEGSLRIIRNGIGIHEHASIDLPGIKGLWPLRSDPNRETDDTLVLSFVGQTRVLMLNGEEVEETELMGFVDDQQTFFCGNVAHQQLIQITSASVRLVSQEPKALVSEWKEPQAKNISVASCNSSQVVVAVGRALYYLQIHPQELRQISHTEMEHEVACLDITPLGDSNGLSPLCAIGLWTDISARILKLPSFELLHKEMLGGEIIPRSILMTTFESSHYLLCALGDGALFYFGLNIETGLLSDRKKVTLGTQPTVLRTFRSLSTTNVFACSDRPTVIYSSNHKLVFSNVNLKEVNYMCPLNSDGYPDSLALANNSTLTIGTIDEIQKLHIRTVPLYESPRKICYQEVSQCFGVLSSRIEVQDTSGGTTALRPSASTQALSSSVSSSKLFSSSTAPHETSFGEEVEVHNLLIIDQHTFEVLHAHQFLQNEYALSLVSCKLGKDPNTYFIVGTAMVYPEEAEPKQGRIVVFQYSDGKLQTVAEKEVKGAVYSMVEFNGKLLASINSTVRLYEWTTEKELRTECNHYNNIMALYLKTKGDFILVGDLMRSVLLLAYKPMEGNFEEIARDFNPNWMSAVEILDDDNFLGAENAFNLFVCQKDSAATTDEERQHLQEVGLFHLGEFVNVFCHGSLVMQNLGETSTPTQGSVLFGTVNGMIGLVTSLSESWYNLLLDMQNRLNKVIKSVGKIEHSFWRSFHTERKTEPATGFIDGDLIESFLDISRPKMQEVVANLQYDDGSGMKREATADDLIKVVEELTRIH

CNc1ccc(C(=O)Nc2cccc(C)n2)c(NC2CC3(C2)CN(C(=O)CCN2CCN(c4ccc(Nc5ncc6c(C)c(C(C)=O)c(=O)n(C7CCCC7)c6n5)nc4)CC2)C3)n1	50 to 80%
CNc1ccc(C(=O)Nc2cccc(C)n2)c(NC2CC(CNC(=O)CN3CCN(c4ccc(Nc5ncc6c(C)c(C(C)=O)c(=O)n(C7CCCC7)c6n5)nc4)CC3)C2)n1 (stereo not drawn)	50 to 80%

Next, consider the following compound.
[ask] // query inhibition at 0.04 µM value for entry `CCc1ccc(C(=O)Nc2ccc(N(C)C)nn2)c(NCCCCCNC(=O)CN2CCN(c3ccc(Nc4ncc5c(C)c(C(C)=O)c(=O)n(C6CCCC6)c5n4)nc3)CC2)n1`
[reply] 50 to 80%

====

Items are presented alongside their recorded activity at 0.1 µM.
assayed system: CDK4 (Homo sapiens, UniProt P11802+Q16531)
assay notes: HiBiT detection of HiBiT-tagged CDK4 protein level in MCF7 cells, 16 hours (Table 8)
Type: cell-based
Design: expressed in transfected cells; host or cells: MCF7
particulars: 100 nM, MCF7 cells stably expressing HiBiT tagged target proteins, read-out: % CDK4 Relative Level (100 nM)
Sequence (P11802 whole entry): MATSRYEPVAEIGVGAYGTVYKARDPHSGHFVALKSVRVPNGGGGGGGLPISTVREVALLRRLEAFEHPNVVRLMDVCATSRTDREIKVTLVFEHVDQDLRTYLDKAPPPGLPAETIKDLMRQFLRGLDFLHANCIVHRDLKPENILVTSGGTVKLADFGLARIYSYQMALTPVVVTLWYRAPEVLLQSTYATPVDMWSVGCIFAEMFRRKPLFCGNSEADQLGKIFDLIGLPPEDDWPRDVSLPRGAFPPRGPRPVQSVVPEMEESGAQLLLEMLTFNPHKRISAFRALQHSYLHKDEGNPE
Sequence (P24385 whole entry partner): as the sequence (P24385 whole entry partner) above
Sequence (Q16531 2-1140 limits assumed): as the sequence (Q16531 2-1140 limits assumed) above

CCc1ccc(C(=O)Nc2ccc(N(C)C)nn2)c(NC2CCC3(CCN(C(=O)CN4CCN(Cc5ccc(Nc6ncc7c(C)c(C(C)=O)c(=O)n(C8CCCC8)c7n6)nc5)CC4)C3)C2)n1 (stereo not drawn)	55 to 85%

[ask] Hi! What's the reported activity at 0.1 µM for `CNc1ccc(C(=O)Nc2ccc(N(C)C)nn2)c(NCCCCC(=O)N2CCN(c3ccc(Nc4ncc5cc6n(c5n4)C4(CCCCC4)CNC6=O)nc3)CC2)n1` on CDK4 (Homo sapiens, UniProt P11802+Q16531)?
[reply] 55 to 85%

[ask] Hi! What's the reported activity at 0.1 µM for `CNc1ccc(C(=O)Nc2ccc(N(C)C)nn2)c(NCCCCCCCC(=O)N2CCN(Cc3ccc(Nc4ncc(F)c(-c5cc(F)c6nc(C)n(C(C)C)c6c5)n4)nc3)CC2)n1` on CDK4 (Homo sapiens, UniProt P11802+Q16531)?
[reply] > 85%

[ask] Hi! What's the reported activity at 0.1 µM for COC1(C(=O)N2CCC(N3CCN(c4ccc(Nc5ncc6c(C)c(C(C)=O)c(=O)n(C7CCCC7)c6n5)nc4)CC3)C2)CCC(Nc2nc(NC(C)C)ccc2C(=O)Nc2ccc(N(C)C)nn2)CC1 (stereo not drawn) on CDK4 (Homo sapiens, UniProt P11802+Q16531)?
[reply] 55 to 85%

[ask] Hi! What's the reported activity at 0.1 µM for `CNc1ccc(C(=O)Nc2ccc(N(C)C)nn2)c(NCCOCCC(=O)N2CCN(c3ccc(Nc4ncc5cc6n(c5n4)C4(CCCCC4)CNC6=O)nc3)CC2)n1` on CDK4 (Homo sapiens, UniProt P11802+Q16531)?
[reply] > 85%

[ask] Hi! What's the reported activity at 0.1 µM for [2H]C([2H])([2H])Nc1ccc(C(=O)Nc2ccc(N(C)C)nn2)c(NC2CC3(C2)CN(C(=O)CN2CCC4(CCN(c5ccc(Nc6ncc7c(C)c(C(C)=O)c(=O)n(C8CCCC8)c7n6)nc5)C4)C2)C3)n1 (stereo not drawn) on CDK4 (Homo sapiens, UniProt P11802+Q16531)?
[reply] 55 to 85%

[ask] Hi! What's the reported activity at 0.1 µM for CC(=O)c1c(C)c2cnc(Nc3ccc(N4CCN(C(C)CC(=O)N5CC6(CC(Nc7nc(NC(C)C)ccc7C(=O)Nc7ccc(N(C)C)nn7)C6)C5)CC4)cn3)nc2n(C2CCCC2)c1=O (stereo not drawn) on CDK4 (Homo sapiens, UniProt P11802+Q16531)?
[reply] 55 to 85%

[ask] Hi! What's the reported activity at 0.1 µM for CNc1ccc(C(=O)Nc2ccc(N(C)C)nn2)c(NCCCC(=O)NC2CCC3(CC2)CC(Nc2ncc4ccc(=O)n(C5CCCC5)c4n2)C3)n1 (stereo not drawn) on CDK4 (Homo sapiens, UniProt P11802+Q16531)?
[reply] > 85%

[ask] Hi! What's the reported activity at 0.1 µM for `CNc1ccc(C(=O)Nc2ccc(N(C)C)nn2)c(NCCC(=O)N2CCN(c3ccc(Nc4ncc(F)c(-c5cc(F)c6nc(C)n(C(C)C)c6c5)n4)nc3)CC2)n1` on CDK4 (Homo sapiens, UniProt P11802+Q16531)?
[reply] > 85%

====

assayed system: CDK4 (Homo sapiens, UniProt P11802+Q16531)
assay notes: HiBiT detection of HiBiT-tagged CDK4 protein level in MCF7 cells, 16 hours (Table 8)
Assay type: cell-based
Set-up: expressed in transfected cells; host or cells: MCF7
particulars: 10 nM, MCF7 cells stably expressing HiBiT tagged target proteins, read-out: % CDK4 Relative Level (10 nM)
assay metric: activity at 0.01 µM

Known activity at 0.01 µM results, listed for orientation:
CC(=O)c1c(C)c2cnc(Nc3ccc(N4CCC5(CC4)CC5C(=O)NC4CC5(C4)CC(Nc4nc(NC(C)C)ccc4C(=O)Nc4ccc(N(C)C)nn4)C5)cn3)nc2n(C2CCCC2)c1=O (centres unmarked)	55 to 85%
CNc1ccc(C(=O)Nc2ccc(N(C)C)nn2)c(NCCCCCCCC(=O)N2CCN(c3ccc(Nc4ncc5cc6n(c5n4)C4(CCCCC4)CNC6=O)nc3)CC2)n1	> 85%
CCc1ccc(C(=O)Nc2ccc(N(C)C)nn2)c(NC23CC(C(=O)N4CCC(N5CCN(c6ccc(Nc7ncc8c(C)c(C(C)=O)c(=O)n(C9CCCC9)c8n7)nc6)CC5)C4)(C2)C3)n1 (centres unmarked)	> 85%
CNc1ccc(C(=O)Nc2ccc(N(C)C)nn2)c(NCCOCCNC(=O)CN2CCN(c3ccc(Nc4ncc5cc6n(c5n4)C4(CCCCC4)CNC6=O)nc3)CC2)n1	> 85%

Next, consider the following compound.
[ask] // query activity at 0.01 µM value for entry CC(=O)c1c(C)c2cnc(Nc3ccc(N4CCN(C5CCN(C(=O)[C@H]6CC[C@H](Nc7nc(C)ccc7C(=O)Nc7ccc(N(C)C)nn7)CC6)C5)CC4)cn3)nc2n(C2CCCC2)c1=O (some centres unmarked)
[reply] 55 to 85%

====

assayed system: CDK4 (Homo sapiens, UniProt P11802+Q16531)
assay notes: HiBiT detection of HiBiT-tagged CDK4 protein level in MCF7 cells, 16 hours (Table 8)
Format: cell-based
Set-up: expressed in transfected cells; host or cells: MCF7
particulars: 100 nM, MCF7 cells stably expressing HiBiT tagged target proteins, read-out: % CDK4 Relative Level (100 nM)
assay metric: activity at 0.1 µM

Known activity at 0.1 µM results, listed for orientation:
CNc1ccc(C(=O)Nc2ccc(N(C)C)nn2)c(NCCCCCNC(=O)CN2CCN(c3ccc(Nc4ncc(F)c(-c5cc(F)c6nc(C)n(C(C)C)c6c5)n4)nc3)CC2)n1 [CPD-661]	> 85%
CNc1ccc(C(=O)Nc2ccc(N(C)C)nn2)c(NCCCCCCCNC(=O)CN2CCN(c3ccc(Nc4ncc5cc(C(=O)N(C)C)n(C6CCCC6)c5n4)nc3)CC2)n1 [CPD-629]	55 to 85%
CNc1ccc(C(=O)Nc2ccc(N(C)C)nn2)c(NCCC(=O)N2CCN(c3ccc(Nc4ncc5cc(C(=O)N(C)C)n(C6CCCC6)c5n4)nc3)CC2)n1 [CPD-616]	> 85%
CC(=O)c1c(C)c2cnc(Nc3ccc(N4CCN(C5CCN(C(=O)[C@H]6CC[C@H](Nc7nc(C)ccc7C(=O)Nc7ccc(N(C)C)nn7)CC6)C5)CC4)cn3)nc2n(C2CCCC2)c1=O (stereo partly shown) [CPD-576]	55 to 85%

[ask] // query activity at 0.1 µM value for entry CC(=O)c1c(C)c2cnc(Nc3ccc(N4CCN(C5CCN(C(=O)C67CC(Nc8nc(C(C)C)ccc8C(=O)Nc8ccc(N(C)C)nn8)(C6)C7)C5)CC4)cn3)nc2n(C2CCCC2)c1=O (stereo not shown) [CPD-580]
[reply] 55 to 85%

[ask] // query activity at 0.1 µM value for entry CCc1ccc(C(=O)Nc2ccc(N(C)C)nn2)c(NC23CC(C(=O)N4CCC(N5CCN(c6ccc(Nc7ncc8c(C)c(C(C)=O)c(=O)n(C9CCCC9)c8n7)nc6)CC5)C4)(C2)C3)n1 (stereo not shown) [CPD-577]
[reply] 55 to 85%

[ask] // query activity at 0.1 µM value for entry CNc1ccc(C(=O)Nc2ccc(N(C)C)nn2)c(NCCCCCC(=O)N2CCN(Cc3ccc(Nc4ncc(F)c(-c5cc(F)c6nc(C)n(C(C)C)c6c5)n4)nc3)CC2)n1 [CPD-603]
[reply] 55 to 85%
